Tested on: MDA-MB-435 melanoma
assaySummary: NCI tumour cell line growth inhibition, 384-well format
TGI for assorted compounds
quantity: TGI

[[record]]
querysmiles = "CC(C)C[C@H](NC(=O)CNC(=O)c1cc(Cl)ccc1Cl)B(O)O"
quantity = "TGI"
measuredresult = "0.0302 µM"

[[record]]
querysmiles = "CN[C@H]1CN(c2ccc3c(=O)c(C(=O)O)cn(-c4nccs4)c3n2)C[C@@H]1OC"
quantity = "TGI"
measuredresult = "> 100 µM"

[[record]]
querysmiles = "CNC(=O)c1c(C)oc2cc(Oc3ncnc4cc(OC)c(OC)cc34)ccc12"
quantity = "TGI"
measuredresult = "> 100 µM"

[[record]]
querysmiles = "CCOC(=O)C1=CCCC[C@H]1S(=O)(=O)Nc1ccc(F)cc1Cl"
quantity = "TGI"
measuredresult = "> 100 µM"

